Collected MFI values appear next to each entry.
- targetDesc: T1, human SEMA4D, full length, on CHO-K1 cells (CHO-K1 hSEMA4D) (human, UniProt Q92854 22-862)
- T1 construct: whole, on cells; also called human SEMA4D recombinant cells
- T1 sequence (looked up): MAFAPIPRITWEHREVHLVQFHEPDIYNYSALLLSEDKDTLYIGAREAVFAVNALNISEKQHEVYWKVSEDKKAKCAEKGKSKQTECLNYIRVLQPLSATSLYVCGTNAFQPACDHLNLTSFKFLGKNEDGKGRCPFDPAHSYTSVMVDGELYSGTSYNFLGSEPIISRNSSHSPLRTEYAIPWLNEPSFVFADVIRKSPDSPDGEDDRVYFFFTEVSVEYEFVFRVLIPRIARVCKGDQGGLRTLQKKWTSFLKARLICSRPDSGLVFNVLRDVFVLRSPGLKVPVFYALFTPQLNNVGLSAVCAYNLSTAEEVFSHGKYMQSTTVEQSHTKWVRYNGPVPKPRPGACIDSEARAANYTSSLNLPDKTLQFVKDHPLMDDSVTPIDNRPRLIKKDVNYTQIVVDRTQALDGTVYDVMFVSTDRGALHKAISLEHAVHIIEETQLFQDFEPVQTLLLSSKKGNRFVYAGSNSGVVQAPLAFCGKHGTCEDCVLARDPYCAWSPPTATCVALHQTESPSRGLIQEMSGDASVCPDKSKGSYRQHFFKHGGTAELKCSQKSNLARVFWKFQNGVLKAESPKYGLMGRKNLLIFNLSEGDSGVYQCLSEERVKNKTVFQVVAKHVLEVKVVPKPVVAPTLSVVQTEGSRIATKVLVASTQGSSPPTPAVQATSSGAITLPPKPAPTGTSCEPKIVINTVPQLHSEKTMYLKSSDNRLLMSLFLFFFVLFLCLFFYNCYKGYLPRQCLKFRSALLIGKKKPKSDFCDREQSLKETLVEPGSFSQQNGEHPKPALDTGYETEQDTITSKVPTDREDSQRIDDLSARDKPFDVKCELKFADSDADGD
- assayRemarks: FACS, CHO-K1 hSEMA4D cells; Ab 0.00427 nM
# respond with the number and nothing more

[
  {
    "binder": "31C11G2 (antibody, V domains shown, Mouse monoclonal antibody purified from hybridoma supernatant on protein A) VH: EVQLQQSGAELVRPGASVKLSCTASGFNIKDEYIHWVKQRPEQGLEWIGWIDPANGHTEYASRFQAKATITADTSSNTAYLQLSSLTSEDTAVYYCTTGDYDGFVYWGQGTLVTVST VL: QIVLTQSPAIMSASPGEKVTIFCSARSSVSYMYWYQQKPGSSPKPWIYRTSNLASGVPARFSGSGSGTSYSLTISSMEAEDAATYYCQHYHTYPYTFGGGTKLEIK",
    "MFI": 87.3
  },
  {
    "binder": "42B7G2 (antibody, V domains shown, Mouse monoclonal antibody purified from hybridoma supernatant on protein A) VH: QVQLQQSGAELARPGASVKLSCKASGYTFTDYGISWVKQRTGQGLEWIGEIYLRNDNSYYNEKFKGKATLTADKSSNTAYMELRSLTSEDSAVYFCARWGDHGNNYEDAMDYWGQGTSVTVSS VL: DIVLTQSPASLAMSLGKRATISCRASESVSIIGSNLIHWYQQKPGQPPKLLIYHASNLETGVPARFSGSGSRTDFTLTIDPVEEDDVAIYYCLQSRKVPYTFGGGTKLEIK",
    "MFI": 68.9
  }
]

Kindly consider the entry below.
[in] Find the recorded MFI belonging to 31G10C5 (antibody, V domains shown, Mouse monoclonal antibody purified from hybridoma supernatant on protein A) VH: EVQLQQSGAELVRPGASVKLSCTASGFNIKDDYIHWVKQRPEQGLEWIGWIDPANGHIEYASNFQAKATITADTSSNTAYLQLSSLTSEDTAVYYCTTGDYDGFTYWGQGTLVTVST VL: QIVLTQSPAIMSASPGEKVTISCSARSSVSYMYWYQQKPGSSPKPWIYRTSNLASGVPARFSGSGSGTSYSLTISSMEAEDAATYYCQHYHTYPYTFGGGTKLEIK and report it.
[out] 85.5
